B1: ZNF8 (parent)
chain: VHVIGVEEPSVGASMLFDIREST

- Variants of: B1
- Assay remarks: protein stability index of a GFP-peptide fusion (GPS, HEK-293T) (PSI 1-6); higher = more stable;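 also: lentivirally expressed fusions sorted by FACS into six bins by GFP to DsRed ratio, PSI derived from sequencing read proportions per bin multiplied by bin number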
- Condition set: c terminus: native
Property: protein stability index

[ask] Please report the recorded protein stability index for S10Y .
[reply] 2.02

[ask] Please report the recorded protein stability index for E7H .
[reply] 1.15

[ask] Please report the recorded protein stability index for G5W .
[reply] 2.37

[ask] Please report the recorded protein stability index for V1N .
[reply] 4.07

[ask] Please report the recorded protein stability index for M15L .
[reply] 1.74

[ask] Please report the recorded protein stability index for P9D .
[reply] 2.53

[ask] Please report the recorded protein stability index for H2Y .
[reply] 2.51

[ask] Please report the recorded protein stability index for H2E .
[reply] 3.35

[ask] Please report the recorded protein stability index for A13F .
[reply] 2.8

[ask] Please report the recorded protein stability index for E7W .
[reply] 3.4

[ask] Please report the recorded protein stability index for I4K .
[reply] 3.18

[ask] Please report the recorded protein stability index for S22W .
[reply] 1.36

[ask] Please report the recorded protein stability index for F17T .
[reply] 2.68

[ask] Please report the recorded protein stability index for V3C .
[reply] 2.74

[ask] Please report the recorded protein stability index for V11S .
[reply] 2.33

[ask] Please report the recorded protein stability index for G12D .
[reply] 2.87

[ask] Please report the recorded protein stability index for L16H .
[reply] 2.71

[ask] Please report the recorded protein stability index for V11D .
[reply] 2.69

[ask] Please report the recorded protein stability index for E21H .
[reply] 1.95

[ask] Please report the recorded protein stability index for P9T .
[reply] 2.12

[ask] Please report the recorded protein stability index for I4G .
[reply] 3.34

[ask] Please report the recorded protein stability index for S14P .
[reply] 2.63

[ask] Please report the recorded protein stability index for E7D .
[reply] 1.86

[ask] Please report the recorded protein stability index for G12N .
[reply] 2.29

[ask] Please report the recorded protein stability index for G12E .
[reply] 2.45

[ask] Please report the recorded protein stability index for G5P .
[reply] 2.36

[ask] Please report the recorded protein stability index for V11Q .
[reply] 2.1

[ask] Please report the recorded protein stability index for A13G .
[reply] 2.74

[ask] Please report the recorded protein stability index for V1Q .
[reply] 3.88

[ask] Please report the recorded protein stability index for E21M .
[reply] 2.04

[ask] Please report the recorded protein stability index for E8I .
[reply] 4.45

[ask] Please report the recorded protein stability index for H2N .
[reply] 2.95

[ask] Please report the recorded protein stability index for E21D .
[reply] 2.38

[ask] Please report the recorded protein stability index for R20V .
[reply] 1.57

[ask] Please report the recorded protein stability index for D18P .
[reply] 1.84

[ask] Please report the recorded protein stability index for A13Q .
[reply] 1.98

[ask] Please report the recorded protein stability index for A13N .
[reply] 2.31

[ask] Please report the recorded protein stability index for E21K .
[reply] 2.2
